# growth per record follows
System: UACC-257 melanoma
EXPERIMENT NOTES: NCI-60 one-dose screen, 48 h (100 = growth as untreated, 0 = no growth, -100 = all killed)
CONDITION SET: 10 µM unless noted
Description: Cells are grown in 96 well plates and exposed to the test compound for 48 hours. Compounds are tested at a single concentration, which is 10^-5 M for most compounds. The reported endpoint is percent growth (GI% or GIPRCNT), where numbers from 0 - 100% represent growth inhibition, and numbers from -100% - 0 represent cell death. For example, a value of 40 represents 60% growth inhibition. A value of 0 means no net growth occurred over the course of the experiment. […]
The panel holds about 83,000 compounds, 20% with a hit somewhere; the sample as a whole holds those more often.

COMPOUND	UNIT OF MEASURE	growth
NC[C@@](O)(c1ccc(Cl)cc1)c1ccc(-c2cn[nH]c2)cc1	%	-23.9
CC1(O)CC(c2nc(-c3ccc4ccc(-c5ccccc5)nc4c3)c3c(N)nccn23)C1 (stereo not drawn)	%	25.7
COC(=O)N[C@@H](C)CNc1nccc(-c2cn(C(C)C)nc2-c2cc(Cl)cc(NS(C)(=O)=O)c2F)n1	%	-25.8
Cc1cc(C)n(CC(=O)Nc2ccc(-c3nc4ccccc4s3)cc2)n1	%	107
CN1[C@@H]2CC[C@H]1/C(=C\c1ccccc1)C1=C2[C@@H](c2ccccc2)C(C#N)=C(N)O1	%	54.6
CCCCCc1ccc(C)cc1OC(=O)CCl	%	107
COC(=O)[C@H](Cc1ccc(O)cc1)NC(=O)[C@@H](OC)[C@@H]1Cc2cc3cc(OC4CC(OC5CC(O)C(O)C(C)O5)C(O)C(C)O4)c(C)c(O)c3c(O)c2C(=O)[C@H]1OC1CC(OC2CC(OC3CC(C)(O)C(O)C(C)O3)C(O)C(C)O2)C(O)C(C)O1 (stereo partly drawn)	%	2.42
CS(=O)(=O)N1CCN(Cc2cc3nc(-c4cccc5[nH]ncc45)nc(N4CCOCC4)c3s2)CC1	%	14.7

====

# growth per record follows
Test system: HCT-116 colon
EXPERIMENT NOTES: NCI-60 one-dose screen, 48 h (100 = growth as untreated, 0 = no growth, -100 = all killed)
CONDITION SET: 10 µM unless noted
Experimental: Growth inhibition of the HCT-116 human tumor cell line is measured as a screen for anti-cancer activity. Cells are grown in 96 well plates and exposed to the test compound for 48 hours. Compounds are tested at a single concentration, which is 10^-5 M for most compounds. The reported endpoint is percent growth (GI% or GIPRCNT), where numbers from 0 - 100% represent growth inhibition, and numbers from -100% - 0 represent cell death. For example, a value of 40 represents 60% growth inhibition. […]
This is part of a sample that, as a whole, favours compounds with a hit. Of some 83,000 tested, about 20% had one in any assay.
ENDPOINT: growth (%)

In [3]: df
Out[3]:
                                   compound   assay_target  unit_of_measure  measured_value
0  O=C(O)C1(Cc2cccc(Nc3nccs3)n2)CCC(Oc2cccc(Cl)c2F)CC1 (stereo not given)  HCT-116 colon                %              45
1  Cn1cc(-c2ncnc3ccc(-c4cnc(Cl)c(NS(C)(=O)=O)c4)cc23)c2ccccc21  HCT-116 colon                %            20.3
2  Cc1cc2c(F)c(Oc3ncnn4cc(OC[C@@H](C)OC(=O)[C@H](C)N)c(C)c34)ccc2[nH]1  HCT-116 colon                %            19.3
3  C[C@@H](Oc1cc(C(=O)Nc2ccc(C(=O)N3CCN(C)CC3)cc2)nnc1N)c1c(Cl)ccc(F)c1Cl  HCT-116 colon                %            49.4
4  CNC(=O)c1cc(Oc2ccc(NC(=O)Nc3ccc(Cl)c(C(F)(F)F)c3)c(F)c2)ccn1  HCT-116 colon                %           -37.3
